# Assay Target: PAF receptor (Oryctolagus cuniculus, UniProt G1TEI7)
# Construct: platelet membranes were prepared by centrifugation and washing; tissue Pel-Freez (Rogers, AR); host or cells: rabbit blood platelets (membranes prepared from citrated whole rabbit blood)
# Sequence (G1TEI7 1-342): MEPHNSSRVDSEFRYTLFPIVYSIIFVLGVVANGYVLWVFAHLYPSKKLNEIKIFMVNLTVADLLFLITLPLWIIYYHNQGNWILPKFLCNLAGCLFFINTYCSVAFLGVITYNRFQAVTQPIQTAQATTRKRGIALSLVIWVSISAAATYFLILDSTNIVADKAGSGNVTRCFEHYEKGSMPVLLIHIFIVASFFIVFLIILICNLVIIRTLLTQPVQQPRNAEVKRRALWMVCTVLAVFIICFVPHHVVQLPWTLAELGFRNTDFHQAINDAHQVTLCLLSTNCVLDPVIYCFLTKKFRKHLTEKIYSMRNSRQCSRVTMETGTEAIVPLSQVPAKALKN
# Experiment Notes: PAF receptor binding assay: inhibition of specific [^3 H]C18 -PAF binding to rabbit platelet membranes
# Measurement Parameters: Table 1; rabbit platelet membranes, 0.6 nM [^3 H]C18 -PAF, 60 minutes at room temperature; Ki by Cheng and Prusoff
Measurement Type: Ki (nM)
Give bare numbers, in nM.

Measured Ki for this entry "COC(=O)c1cccc2c1c(C(=O)c1ccc(Cn3c(C)nc4c(Cl)nccc43)cc1)cn2C(=O)N(C)C" on PAF receptor (Oryctolagus cuniculus, UniProt G1TEI7): 4

* * *

# Assay Target: PAF receptor (Oryctolagus cuniculus, UniProt G1TEI7)
# Construct: platelet membranes were prepared by centrifugation and washing; tissue Pel-Freez (Rogers, AR); host or cells: rabbit blood platelets (membranes prepared from citrated whole rabbit blood)
# Experiment Notes: PAF receptor binding assay: inhibition of specific [^3 H]C18 -PAF binding to rabbit platelet membranes
// assign 1 if Ki falls strictly below 8 nM, else -1 (ties count as -1)

Say whether its Ki is strictly beneath 8 nM. Entry: "CCc1cccc2c1c(C(=O)c1ccc(Cn3c(C)nc4cnccc43)cc1)cn2C(=O)N(C)C"
1

Say whether its Ki is strictly beneath 8 nM. Entry: "Cc1nc2cnccc2n1Cc1cccc(C(=O)c2cn(C(=O)N(C)C)c3ccccc23)c1"
-1

Say whether its Ki is strictly beneath 8 nM. Entry: "Cc1nc2ccccc2n1Cc1ccc(C(=O)c2cn(C(=O)N(C)C)c3cc(-c4ccc(F)cc4)ccc23)cc1"
-1

* * *

# Assay Target: PAF receptor (Oryctolagus cuniculus, UniProt G1TEI7)
# Construct: platelet membranes were prepared by centrifugation and washing; tissue Pel-Freez (Rogers, AR); host or cells: rabbit blood platelets (membranes prepared from citrated whole rabbit blood)
# Experiment Notes: PAF receptor binding assay: inhibition of specific [^3 H]C18 -PAF binding to rabbit platelet membranes
Give measured Ki for each item. Keep answers brief.
Answers are plain numbers, in nM.

# return Ki for each item in the list
1. Cc1nc2cnccc2n1Cc1ccc(C(=O)c2cn(C(=O)N(C)C)c3cccc(Br)c23)cc1
2. Cc1nc2cnccc2n1Cc1ccc(C(=O)c2cn(C(=O)N(C)C)c3ccccc23)cc1
3. Cc1nc2cnccc2n1-c1ccc(C(=O)c2cn(C(=O)N(C)C)c3ccccc23)cc1
4. Cc1nc2cnccc2n1Cc1ccc(C(=O)c2cn(C(=O)N(C)C)c3cccc(C(=O)N(C)C)c23)cc1
5. Cc1nc2ccncc2n1Cc1ccc(C(=O)c2cn(C(=O)N(C)C)c3cc(-c4ccc(F)cc4)ccc23)cc1
6. COC(=O)c1cccc2c1c(C(=O)c1ccc(Cn3c(C)nc4cnccc43)cc1)cn2CC(=O)C(C)(C)C
7. CN(C)C(=O)n1cc(C(=O)c2ccc(Cn3cnc4cnccc43)cc2)c2ccccc21

[10, 5, 146, 150, 700, 1.3, 342]

# return Ki for each item in the list
1. COC(=O)c1cccc2c1c(C(=O)c1ccc(Cn3c(C)nc4cc(Cl)c(Cl)cc43)cc1)cn2C(=O)N(C)C
2. Cc1nc2ncccc2n1Cc1ccc(C(=O)c2cn(C(=O)N(C)C)c3ccccc23)cc1

[450, 87]

* * *

# Assay Target: PAF receptor (Oryctolagus cuniculus, UniProt G1TEI7)
# Construct: platelet membranes were prepared by centrifugation and washing; tissue Pel-Freez (Rogers, AR); host or cells: rabbit blood platelets (membranes prepared from citrated whole rabbit blood)
# Experiment Notes: PAF receptor binding assay: inhibition of specific [^3 H]C18 -PAF binding to rabbit platelet membranes
# Measurement Parameters: Table 1; rabbit platelet membranes, 0.6 nM [^3 H]C18 -PAF, 60 minutes at room temperature; Ki by Cheng and Prusoff; read-out: Ki
Measurement Type: pKi
Give bare numbers, as −log10 of the molar value.

Measured pKi for this entry COC(=O)c1cccc2c1c(C(=O)CCCCCn1c(C)nc3cnccc31)cn2C(=O)N(C)C [Example 126] on PAF receptor (Oryctolagus cuniculus, UniProt G1TEI7): 7.21

Measured pKi for this entry COC(=O)c1cccc2c1c(S(=O)(=O)c1ccc(Cn3c(C)nc4cnccc43)cc1)cn2C(=O)N(C)C [Example 141] on PAF receptor (Oryctolagus cuniculus, UniProt G1TEI7): 7.70

From here, focus on the item given below.
Measured pKi for this entry Cc1nc2cnccc2n1-c1ccc(C(=O)c2c[nH]c3cc(-c4ccc(F)cc4)ccc23)cc1 [Example 9] on PAF receptor (Oryctolagus cuniculus, UniProt G1TEI7): 7.22
